Value source: patent US20240043508A1

# TESTED TARGET: SARS-CoV-2 RBD (wild-type) (SARS-CoV-2, UniProt P0DTC2 319-541)
MEASURE NAME: Kd (nM)
Express your answer in nM, writing the number without its unit.

Solved cases (3 shown):
>>> numeric_readout("RB4 (antibody, V domains shown) VH: EVQLLESGGGLVQPGGSLRLSCAASGFTFSDYSMSWVRQAPGKGLEWVSGIYHSDGSKYYADSVKGRFTISRDNSKNTLYLQMNSLRAEDTAVYYCARFDPVFDYWGQGTLVTVSS VL: QSVLTQPPSASGTPGQRVTISCSGSSSNIGSNAVSWYQQLPGTAPKLLIYDNNHRPSGVPDRFSGSKSGTSASLAISGLRSEDEADYYCGSWDDSLNAYVFGGGTKLTVL")
0.186
>>> numeric_readout("RB6 (antibody, V domains shown, also called K102.2) VH: EVQLLESGGGLVQPGGSLRLSCAASGFTFSSYDMSWVRQAPGKGLEWVSGISYSGGSTYYADSVKGRFTISRDNSKNTLYLQMNSLRAEDTAVYYCARDVNFVPLVTFDYWGQGTLVTVSS VL: QSVLTQPPSASGTPGQRVTLSCTGSSSNIGSNSVTWYQQLPGTAPKLLIYDDNQRPSGVPDRFSGSKSGTSASLAISGLRSEDEADYYCGTWDYSLSAYVFGGGTKLTVL")
0.716
>>> numeric_readout("RG6 (antibody, V domains shown) VH: EVQLLESGGGLVQPGGSLRLSCAASGFTFSDYSMSWVRQAPGKGLEWVSGIYHSDGSKYYADSVKGRFTISRDNSKNTLYLQMNSLRAEDTAVYYCARFDPVFDYWGQGTLVTVSS VL: QSVLTQPPSASGTPGQRVTISCTGSSSNIGSNAVNWYQQLPGTAPKLLIYADSNRPSGVPDRFSGSKSGTSASLAISGLRSEDEADYYCGAWDASLSAYVFGGGTKLTVL")
0.481

Now examine the next entry.
Measured Kd, RD10 (antibody, V domains shown) VH: EVQLLESGGGLVQPGGSLRLSCAASGFTFSDYAMSWVRQAPGKGLEWVSAIYPGGGSTYYADSVKGRFTISRDNSKNTLYLQMNSLRAEDTAVYYCARNLFGFDYWGQGTLVTVSS VL: QSVLTQPPSASGTPGQRVTISCTGSSSNIGSNAVYWYQQLPGTAPKLLIYDDSNRPSGVPDRFSGSKSGTSASLAISGLRSEDEADYYCGSWDDSLSAYVFGGGTKLTVL : 0.55
